Target: C-Raf (Y340D/Y341D) (Homo sapiens (Human), UniProt P04049, Y340D/Y341D)
Sequence (P04049 whole entry Y340D/Y341D): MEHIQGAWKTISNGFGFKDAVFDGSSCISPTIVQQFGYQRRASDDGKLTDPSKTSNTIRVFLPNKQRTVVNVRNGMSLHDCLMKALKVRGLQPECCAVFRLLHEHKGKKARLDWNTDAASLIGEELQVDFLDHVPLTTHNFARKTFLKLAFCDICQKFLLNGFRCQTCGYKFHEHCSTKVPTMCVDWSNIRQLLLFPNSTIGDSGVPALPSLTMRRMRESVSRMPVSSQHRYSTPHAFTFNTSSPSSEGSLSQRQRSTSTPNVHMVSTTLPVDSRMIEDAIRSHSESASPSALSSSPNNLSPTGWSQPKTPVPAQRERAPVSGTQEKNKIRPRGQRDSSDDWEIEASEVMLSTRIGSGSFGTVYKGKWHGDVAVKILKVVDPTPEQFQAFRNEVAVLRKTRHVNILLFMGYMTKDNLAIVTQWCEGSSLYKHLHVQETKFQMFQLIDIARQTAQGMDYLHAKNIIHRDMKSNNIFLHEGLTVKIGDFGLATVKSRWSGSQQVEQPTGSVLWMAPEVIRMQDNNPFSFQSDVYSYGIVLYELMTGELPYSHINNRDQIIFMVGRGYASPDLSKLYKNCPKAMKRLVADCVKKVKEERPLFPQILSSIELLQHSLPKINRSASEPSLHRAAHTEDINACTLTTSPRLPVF
Test: Raf IC50 assay, time-resolved fluorescence energy transfer, C-Raf (Y340D/Y341D)
Assay type: biochemical
Conditions: 0.1 mM ATP
assay readout: IC50 (nM)

1. O=C1CCc2c(Oc3ccc4c(c3)[C@H]3[C@H](NC(=O)Nc5ccc(F)c(F)c5F)[C@H]3O4)ccnc2N1 [Compound 1.46] = 0.22
2. O=C1CCc2c(Oc3ccc4c(c3)[C@H]3[C@H](NC(=O)Nc5ccc(Cl)cc5C(F)(F)F)[C@H]3O4)ccnc2N1 [Compound 1.9] = 1.6
3. O=C1CCc2c(Oc3ccc4c(c3)[C@H]3[C@H](NC(=O)Nc5c(F)cc(F)cc5F)[C@H]3O4)ccnc2N1 [Compound 1.40] = 0.2
4. O=C1CCc2c(Oc3ccc4c(c3)[C@H]3[C@H](NC(=O)Nc5cccc(C(F)(F)F)c5F)[C@H]3O4)ccnc2N1 [Compound 1.12] = 1.1
5. O=C1CCc2c(Oc3ccc4c(c3)[C@H]3[C@H](NC(=O)Nc5ccc(F)cc5)[C@H]3O4)ccnc2N1 [Compound 1.41] = 0.15
6. CC(C)(N)c1cc(NC(=O)N[C@@H]2[C@H]3Oc4ccc(Oc5ccnc6c5CCC(=O)N6)cc4[C@@H]23)cc(C(F)(F)F)c1 [Compound 1.70] = 0.81

----------
Target: C-Raf (Y340D/Y341D) (Homo sapiens (Human), UniProt P04049, Y340D/Y341D)
Experiment: Raf IC50 assay, time-resolved fluorescence energy transfer, C-Raf (Y340D/Y341D)
Format: biochemical
Details: 0.1 mM ATP
In this section, each of the compounds is paired with its reported IC50.
assay readout: IC50 (nM)

1) O=C1CCc2c(Oc3ccc4c(c3)[C@H]3[C@H](NC(=O)Nc5cc(F)ccc5F)[C@H]3O4)ccnc2N1 = 0.26
2) CCN1CCN(Cc2ccc(NC(=O)N[C@@H]3[C@H]4Oc5ccc(Oc6ccnc7c6CCC(=O)N7)cc5[C@@H]34)cc2C(F)(F)F)CC1 = 0.84
3) O=C1CCc2c(Oc3ccc4c(c3)[C@H]3[C@H](NC(=O)Nc5cccc(F)c5)[C@H]3O4)ccnc2N1 = 0.18

----------
Listed here are compounds together with their documented IC50.
Target: wild type B-Raf (Homo sapiens (Human), UniProt P15056)
Sequence (P15056 whole entry): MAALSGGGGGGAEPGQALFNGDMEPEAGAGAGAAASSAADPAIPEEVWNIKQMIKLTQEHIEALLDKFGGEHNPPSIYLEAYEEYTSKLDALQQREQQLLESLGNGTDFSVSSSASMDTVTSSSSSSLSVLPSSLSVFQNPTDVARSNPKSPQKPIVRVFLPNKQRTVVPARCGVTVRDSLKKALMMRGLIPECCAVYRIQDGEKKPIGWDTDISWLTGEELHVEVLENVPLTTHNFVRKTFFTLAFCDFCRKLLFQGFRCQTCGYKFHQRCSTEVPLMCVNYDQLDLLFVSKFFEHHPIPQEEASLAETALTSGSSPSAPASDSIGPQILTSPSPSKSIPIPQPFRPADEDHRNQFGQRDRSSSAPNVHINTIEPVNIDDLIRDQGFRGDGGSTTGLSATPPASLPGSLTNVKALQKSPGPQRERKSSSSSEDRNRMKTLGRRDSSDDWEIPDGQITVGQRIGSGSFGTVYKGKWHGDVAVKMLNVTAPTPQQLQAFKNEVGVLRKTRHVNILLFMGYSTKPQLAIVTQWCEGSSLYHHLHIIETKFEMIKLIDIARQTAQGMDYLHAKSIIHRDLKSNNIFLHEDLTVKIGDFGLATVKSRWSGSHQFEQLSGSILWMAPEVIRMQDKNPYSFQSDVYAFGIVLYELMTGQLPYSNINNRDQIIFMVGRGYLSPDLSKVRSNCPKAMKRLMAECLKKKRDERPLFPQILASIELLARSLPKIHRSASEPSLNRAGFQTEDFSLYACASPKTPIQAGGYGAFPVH
Experiment: WT B-Raf IC50 assay, time-resolved fluorescence energy transfer
Assay type: biochemical
Settings: 2.5 mM ATP; read-out: IC50 (nM) B-Raf^WT 2.5 mM ATP
assay readout: IC50

1. O=C1CCc2c(Oc3ccc4c(c3)[C@H]3[C@H](NC(=O)Nc5cc(F)c(F)c(F)c5)[C@H]3O4)ccnc2N1 = 23 nM
2. O=C1CCc2c(Oc3ccc4c(c3)[C@H]3[C@H](NC(=O)Nc5cccc(F)c5)[C@H]3O4)ccnc2N1 = 4.2 nM
3. COc1cccc(NC(=O)N[C@@H]2[C@H]3Oc4ccc(Oc5ccnc6c5CCC(=O)N6)cc4[C@@H]23)c1Cl = 11 nM
4. O=C1CCc2c(Oc3ccc4c(c3)[C@H]3[C@H](NC(=O)Nc5cccc(C(F)(F)F)c5F)[C@H]3O4)ccnc2N1 = 86 nM
5. O=C1CCc2c(Oc3ccc4c(c3)[C@H]3[C@H](NC(=O)Nc5cc(F)cc(F)c5)[C@H]3O4)ccnc2N1 = 12 nM
6. O=C1CCc2c(Oc3ccc4c(c3)[C@H]3[C@H](NC(=O)Nc5cc(C(F)(F)F)ccn5)[C@H]3O4)ccnc2N1 = 18 nM
7. O=C1CCc2c(Oc3ccc4c(c3)[C@H]3[C@H](NC(=O)Nc5ccccc5F)[C@H]3O4)ccnc2N1 = 2.5 nM
8. O=C1CCc2c(Oc3ccc4c(c3)[C@H]3[C@H](NC(=O)Nc5ccc(F)cc5F)[C@H]3O4)ccnc2N1 = 4.1 nM
9. O=C1CCc2c(Oc3ccc4c(c3)[C@H]3[C@H](NC(=O)Nc5c(F)ccc(F)c5F)[C@H]3O4)ccnc2N1 = 7.9 nM
10. O=C1CCc2c(Oc3ccc4c(c3)[C@H]3[C@H](NC(=O)Nc5cccc(C(F)(F)F)c5)[C@H]3O4)ccnc2N1 = 43 nM
11. O=C1CCc2c(Oc3ccc4c(c3)[C@H]3[C@H](NC(=O)Nc5ccc(F)c(F)c5)[C@H]3O4)ccnc2N1 = 6.7 nM
12. O=C1CCc2c(Oc3ccc4c(c3)[C@H]3[C@H](NC(=O)Nc5ccc(F)c(C(F)(F)F)c5)[C@H]3O4)ccnc2N1 = 58 nM
13. O=C1CCc2c(Oc3ccc4c(c3)[C@H]3[C@H](NC(=O)Nc5ccc(F)c(F)c5F)[C@H]3O4)ccnc2N1 = 6 nM
14. C#Cc1cccc(NC(=O)N[C@@H]2[C@H]3Oc4ccc(Oc5ccnc6c5CCC(=O)N6)cc4[C@@H]23)c1 = 8.5 nM
15. O=C1CCc2c(Oc3ccc4c(c3)[C@H]3[C@H](NC(=O)Nc5cc(F)cc(C(F)(F)F)c5)[C@H]3O4)ccnc2N1 = 110 nM
16. O=C1CCc2c(Oc3ccc4c(c3)[C@H]3[C@H](NC(=O)Nc5cc(F)c(F)cc5F)[C@H]3O4)ccnc2N1 = 7.9 nM

----------
Tested on: p61-A375 (pERK)
Assay: ERK phosphorylation inhibition IC50 assay in p61-A375
Assay type: cell-based
Conditions: 1 hour compound treatment
Rule: IC50 below 300 nM gives 1.0, anything at or above gives 0.0.

1. O=C1CCc2c(Oc3ccc4c(c3)[C@H]3[C@H](NC(=O)Nc5ccc(F)c(F)c5)[C@H]3O4)ccnc2N1 [Compound 1.45] = 0.0
2. O=C1CCc2c(Oc3ccc4c(c3)[C@H]3[C@H](NC(=O)Nc5ccc(F)c(C(F)(F)F)c5)[C@H]3O4)ccnc2N1 [Compound 1.32] = 0.0
3. O=C1CCc2c(Oc3ccc4c(c3)[C@H]3[C@H](NC(=O)NC5CCCCCC5)[C@H]3O4)ccnc2N1 [Compound 1.52] = 1.0
4. O=C1CCc2c(Oc3ccc4c(c3)[C@H]3[C@H](NC(=O)Nc5cc(F)c(F)cc5F)[C@H]3O4)ccnc2N1 [Compound 1.49] = 1.0
5. O=C1CCc2c(Oc3ccc4c(c3)[C@H]3[C@H](NC(=O)Nc5cc(F)cc(F)c5)[C@H]3O4)ccnc2N1 [Compound 1.23] = 1.0
6. CCCS(=O)(=O)Nc1ccc(F)c(C(=O)c2c[nH]c3ncc(-c4ccc(Cl)cc4)cc23)c1F [Vemurafenib, reference compound] = 0.0
7. O=C1CCc2c(Oc3ccc4c(c3)[C@H]3[C@H](NC(=O)Nc5ccc(F)cc5F)[C@H]3O4)ccnc2N1 [Compound 1.35] = 0.0

----------
Molecular target: wild type B-Raf (Homo sapiens (Human))
Assay: WT B-Raf IC50 assay, time-resolved fluorescence energy transfer
Assay type: biochemical
Conditions: Km ATP (2.9 μM ATP); read-out: IC50 (nM) B-Raf^WT Km ATP
assay readout: IC50 (nM)

1. O=C1CCc2c(Oc3ccc4c(c3)[C@H]3[C@H](NC(=O)Nc5ccc(F)c(F)c5)[C@H]3O4)ccnc2N1 [Compound 1.45] = 2.7
2. O=C1CCc2c(Oc3ccc4c(c3)[C@H]3[C@H](NC(=O)Nc5cc(F)c(F)cc5F)[C@H]3O4)ccnc2N1 [Compound 1.49] = 2.5
3. Cc1cc(NC(=O)N[C@@H]2[C@H]3Oc4ccc(Oc5ccnc6c5CCC(=O)N6)cc4[C@@H]23)ccc1F [Compound 1.24] = 2.7
4. Cc1cc(Cl)ccc1NC(=O)N[C@@H]1[C@H]2Oc3ccc(Oc4ccnc5c4CCC(=O)N5)cc3[C@@H]12 [Compound 1.7] = 2.6
5. O=C1CCc2c(Oc3ccc4c(c3)[C@H]3[C@H](NC(=O)Nc5ccc(F)cc5F)[C@H]3O4)ccnc2N1 [Compound 1.35] = 1
6. O=C1CCc2c(Oc3ccc4c(c3)[C@H]3[C@H](NC(=O)Nc5ccc(F)c(F)c5F)[C@H]3O4)ccnc2N1 [Compound 1.46] = 1.7
7. O=C1CCc2c(Oc3ccc4c(c3)[C@H]3[C@H](NC(=O)Nc5cc(C(F)(F)F)ccn5)[C@H]3O4)ccnc2N1 [Compound 1.2] = 6.3

----------
Target: B-Raf (V600E) (Homo sapiens (Human), UniProt P15056, V600E)
Sequence (P15056 whole entry V600E): as the sequence (P15056 whole entry) above, with V600E counted along it
Assay: Raf IC50 assay, time-resolved fluorescence energy transfer, B-Raf (V600E)
Type: biochemical
Conditions: 0.1 mM ATP; read-out: IC50 (nM) B_Raf^V600E
assay readout: log10 of IC50 (log10 of the value in nM)

1) O=C1CCc2c(Oc3ccc4c(c3)[C@H]3[C@H](NC(=O)Nc5cc(Cl)ccn5)[C@H]3O4)ccnc2N1 = -0.07
2) O=C1CCc2c(Oc3ccc4c(c3)[C@H]3[C@H](NC(=O)Nc5cc(Br)ccc5Cl)[C@H]3O4)ccnc2N1 = 0.94
3) O=C1CCc2c(Oc3ccc4c(c3)[C@H]3[C@H](NC(=O)Nc5c(F)cc(F)cc5F)[C@H]3O4)ccnc2N1 = 0.20
4) O=C1CCc2c(Oc3ccc4c(c3)[C@H]3[C@H](NC(=O)Nc5ccc(Cl)cc5C(F)(F)F)[C@H]3O4)ccnc2N1 = 0.98
5) O=C1CCc2c(Oc3ccc4c(c3)[C@H]3[C@H](NC(=O)N[C@@H]5CCCc6ccccc65)[C@H]3O4)ccnc2N1 = 0.60
6) CNC(=O)c1cc(Oc2ccc3c(c2)[C@H]2[C@H](NC(=O)Nc4ccc(Cl)c(C(F)(F)F)c4)[C@H]2O3)ccn1 = 1.94
7) O=C1CCc2c(Oc3ccc4c(c3)[C@H]3[C@H](NC(=O)Nc5ccncn5)[C@H]3O4)ccnc2N1 = 0.11

Cited source: patent US9670203B2
